Ref: patent US12410166B2

Tested on: K. pneumoniae 700603 (strain 4, KPC-3, TEM-1)
Test: MIC by broth microdilution (antibacterial and synergistic activity)
Format: cell-based
Details: Klebsiella pneumoniae; strain 4 (KPC-3, TEM-1); compound alone, no antibiotic; read-out: Antibacterial activity, MIC, inhibitor Alone
outcomeMeasure: MIC

Worked cases, MIC given:
O=C(NC1CCNCC1)[C@@H]1CC[C@@H]2CN1C(=O)N2OS(=O)(=O)O [REL, relebactam, reference compound]	> 64 µg/mL
N=C(NS(=O)(=O)C(F)(F)F)[C@@H]1CC[C@@H]2CN1C(=O)N2OS(=O)(=O)O	> 64 µg/mL

Okay, next one:
// query Could you share which MIC value was measured for `N=C(NS(N)(=O)=O)[C@@H]1CC[C@@H]2CN1C(=O)N2OS(=O)(=O)O` ?
// result > 64 µg/mL
